The reported measurements were obtained from patent US20260116991A1.

Molecular target: T1, monkey GPC3-His protein (monkey)
T1 construct: Bought recombinant protein; also called monkey GPC3 protein
Test: ELISA, monkey GPC3-His coated;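 note: Plate-coated antigen at 1 µg/mL, antibody binding 2 h at 37 °C, detected with HRP-labeled secondary antibody and TMB, absorbance at 450 nm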
RECORDED METRIC: OD450 at 0.001 nM (OD450)
Respond numerically; units are OD450 and should not be typed.

Here's what some known entries look like.
F1.136.7 (antibody, human IgG1, kappa, V domains shown, Human-murine chimeric antibody) VH: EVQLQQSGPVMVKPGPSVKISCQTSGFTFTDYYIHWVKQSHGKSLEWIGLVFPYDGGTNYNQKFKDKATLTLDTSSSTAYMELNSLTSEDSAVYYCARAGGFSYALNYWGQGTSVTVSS VL: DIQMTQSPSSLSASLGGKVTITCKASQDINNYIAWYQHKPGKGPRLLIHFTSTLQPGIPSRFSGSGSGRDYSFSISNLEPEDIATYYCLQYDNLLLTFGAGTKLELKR | 0.05
F2.55.11 (antibody, human IgG1, kappa, V domains shown, Human-murine chimeric antibody) VH: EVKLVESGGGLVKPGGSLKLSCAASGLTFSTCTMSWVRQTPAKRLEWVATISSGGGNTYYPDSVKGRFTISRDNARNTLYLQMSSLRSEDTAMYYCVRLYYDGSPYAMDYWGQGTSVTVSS VL: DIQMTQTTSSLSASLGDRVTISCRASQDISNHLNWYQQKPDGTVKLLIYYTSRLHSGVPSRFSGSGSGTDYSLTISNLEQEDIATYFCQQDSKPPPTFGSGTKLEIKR | 0.1

Please look up its OD450 at 0.001 nM: F2.152.3 (antibody, human IgG1, kappa, V domains shown, Human-murine chimeric antibody) VH: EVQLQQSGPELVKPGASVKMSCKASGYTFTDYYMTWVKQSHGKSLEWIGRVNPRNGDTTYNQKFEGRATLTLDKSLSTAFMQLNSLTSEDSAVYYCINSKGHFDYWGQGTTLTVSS VL: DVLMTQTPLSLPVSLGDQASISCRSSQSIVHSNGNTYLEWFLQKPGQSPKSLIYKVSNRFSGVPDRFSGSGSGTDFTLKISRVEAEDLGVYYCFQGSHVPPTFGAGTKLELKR
0.31
